molecular target: UniProtKB P37840; assay: Isothermal titration calorimetry (ITC) binding to alpha-synuclein; conditions: ITC in 1.0M KCl; bifunctional molecules (or monomers) per alpha-synuclein molecule, best fit
readout: # of Binding sites

compound | recorded.result
Cn1c(=O)c2c(nc(CCCCCCc3nc4c(c(=O)n(C)c(=O)n4C)n3C)n2C)n(C)c1=O | 0.25
CN(C)C(=N)N=C(N)N [Metformin, metformin, reference compound] | 1
Cn1c(=O)c2c(nc(CCCCCCNC3CCc4ccccc43)n2C)n(C)c1=O (racemic) | 1
Cn1c(=O)c2c(ncn2CCCCCCNC2CCc3ccccc32)n(C)c1=O (stereo not shown) | 1

----------
target: alpha-synuclein (Homo sapiens, UniProt P37840); assay: Isothermal titration calorimetry (ITC) binding to alpha-synuclein; conditions: Table 2, ITC
List of Ka values.

compound | Ka (M⁻¹)
N[C@@H]1CCc2ccccc21 [R-Aminoindan, reference compound] | 1e+06
Cn1c(=O)c2c(ncn2CCCCCCn2cnc3c2c(=O)n(C)c(=O)n3C)n(C)c1=O [Compound C7-6-C7] | 700000
Cn1c(=O)c2c(ncn2CCCCCCCCN2CCCC2c2cccnc2)n(C)c1=O (racemic) [Compound C7-8-N] | 4e+06
Cn1c(=O)c2c(ncn2CCCCn2cnc3c2c(=O)n(C)c(=O)n3C)n(C)c1=O [Compound C7-4-C7] | 1e+07
Cn1c(=O)c2c(nc(CCCCCCN3CCCC3c3cccnc3)n2C)n(C)c1=O (racemic) [Compound C8-6-N] | 43000
Cn1c(=O)c2c(nc(CCc3nc4c(c(=O)n(C)c(=O)n4C)n3C)n2C)n(C)c1=O [Compound C8-2-C8] | 900000
Cn1c(=O)c2c(ncn2CCCCNC2CCc3ccccc32)n(C)c1=O (centres unmarked) [Compound C7-4-I] | 5e+06
Cn1c(=O)c2c(ncn2CCCCCCN2CCCC2c2cccnc2)n(C)c1=O (racemic) [Compound C7-6-N] | 5e+06

----------
target: alpha-synuclein (Homo sapiens, UniProt P37840); assay: Isothermal titration calorimetry (ITC) binding to alpha-synuclein; settings: ITC in 1.0M KCl
List of Ka values.

compound | unit.abbrev | Ka
Cn1c(=O)c2c(nc(CCCCCCN3CCCC3c3cccnc3)n2C)n(C)c1=O (racemic) [Compound C8-6-N] | M⁻¹ | 43000
Cn1c(=O)c2c(ncn2CCCCCCn2cnc3c2c(=O)n(C)c(=O)n3C)n(C)c1=O [Compound C7-6-C7] | M⁻¹ | 720000
Cn1c(=O)c2c(nc(CCCCCCNC3CCc4ccccc43)n2C)n(C)c1=O (racemic) [Compound C8-6-I] | M⁻¹ | 53000
N[C@@H]1CCc2ccccc21 [R-Aminoindan, reference compound] | M⁻¹ | 1e+06
CN1CCC[C@H]1c1cccnc1 [S-Nicotine, reference compound] | M⁻¹ | 400000
Cn1c(=O)c2c(ncn2CCCCCCNC2CCc3ccccc32)n(C)c1=O (centres unmarked) [Compound C7-6-I] | M⁻¹ | 2.6e+06
N[C@H]1CCc2ccccc21 [S-Aminoindan, reference compound] | M⁻¹ | 3.1e+06
Cn1c(=O)c2c(ncn2CCCCCCN2CCCC2c2cccnc2)n(C)c1=O (racemic) [Compound C7-6-N] | M⁻¹ | 5.1e+06

----------
target: alpha-synuclein (Homo sapiens); test: Isothermal titration calorimetry (ITC) binding to alpha-synuclein; conditions: Ka

compound | system.tested | Kd [nM]
CN1CCCC1c1cccnc1 (centres unmarked) [Nicotine, nicotine, reference compound] | alpha-synuclein (Homo sapiens) | 1000
CN1CCC[C@@H]1c1cccnc1 [R-Nicotine, reference compound] | alpha-synuclein (Homo sapiens) | 714
